Tested on: Escherichia coli
assayInfo: Antibacterial activity against Escherichia coli BW25113 assessed as reduction in bacterial growth incubated for 20 hrs by resazurin microtitre assay
Type: functional
Assignment: determine reported MIC95 for the given compounds.

Example entries begin here.
smilesData | testTarget | measuredAttribute | experimentalValue
Cc1onc(-c2ccccc2)c1C(=O)N[C@@H]1C(=O)N2[C@@H]1SC(C)(C)[C@@H]2C(=O)O | Escherichia coli | MIC95 | > 128 mg/L
CC(=O)O[C@H]1C[C@@]2(C)[C@@H](C[C@@H](O)[C@H]3[C@@]4(C)CC[C@@H](O)[C@@H](C)[C@@H]4CC[C@@]32C)/C1=C(\CCC=C(C)C)C(=O)O | Escherichia coli | MIC95 | > 128 mg/L

Now look at this one.
Short answer on Escherichia coli for `CC(=O)NC[C@H]1CN(c2ccc(N3CCOCC3)c(F)c2)C(=O)O1` , MIC95: > 128 mg/L

----------
Assignment: determine reported EC90 for the given compounds.
testTarget: Multidrug efflux pump subunit AcrB (Escherichia coli (strain K12)) (UniProt P31224)
Sequence (P31224 whole entry): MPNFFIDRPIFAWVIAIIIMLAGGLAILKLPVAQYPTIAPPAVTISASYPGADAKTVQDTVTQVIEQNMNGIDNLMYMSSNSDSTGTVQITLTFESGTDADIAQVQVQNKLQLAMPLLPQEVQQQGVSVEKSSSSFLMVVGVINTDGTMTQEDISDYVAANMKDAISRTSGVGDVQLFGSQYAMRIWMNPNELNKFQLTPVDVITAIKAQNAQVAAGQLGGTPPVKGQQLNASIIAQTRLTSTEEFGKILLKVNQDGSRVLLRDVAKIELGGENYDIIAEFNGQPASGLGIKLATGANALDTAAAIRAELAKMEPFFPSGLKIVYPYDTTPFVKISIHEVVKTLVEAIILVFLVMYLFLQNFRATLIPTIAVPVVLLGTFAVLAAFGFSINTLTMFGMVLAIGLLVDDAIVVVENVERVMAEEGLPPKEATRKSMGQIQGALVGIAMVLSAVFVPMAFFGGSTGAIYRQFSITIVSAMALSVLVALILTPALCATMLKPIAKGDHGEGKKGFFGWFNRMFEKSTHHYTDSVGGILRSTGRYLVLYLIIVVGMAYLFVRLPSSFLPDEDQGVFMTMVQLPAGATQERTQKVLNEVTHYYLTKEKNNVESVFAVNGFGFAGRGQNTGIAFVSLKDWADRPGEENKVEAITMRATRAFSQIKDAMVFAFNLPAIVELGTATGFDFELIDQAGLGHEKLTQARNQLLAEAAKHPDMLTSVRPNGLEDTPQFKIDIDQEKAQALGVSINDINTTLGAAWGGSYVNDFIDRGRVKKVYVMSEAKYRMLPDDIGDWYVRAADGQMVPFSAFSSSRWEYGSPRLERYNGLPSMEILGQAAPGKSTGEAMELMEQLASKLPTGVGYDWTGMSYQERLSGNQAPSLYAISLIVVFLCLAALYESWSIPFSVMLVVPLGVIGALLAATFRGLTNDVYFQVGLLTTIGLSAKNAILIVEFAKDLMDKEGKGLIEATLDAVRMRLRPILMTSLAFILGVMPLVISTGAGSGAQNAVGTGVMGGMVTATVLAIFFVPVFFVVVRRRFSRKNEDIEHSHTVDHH
assayInfo: Inhibition of AcrB in Escherichia coli BW25113 assessed as potentiation of pyridomycin-induced antibacterial activity incubated for 20 hrs by resazurin microtitre assay; note: test concentration or dose not given here

smilesData | testTarget | measuredAttribute | experimentalValue
C[C@@H]1CNCCN1c1ncc(C(F)(F)F)cc1Cl | Multidrug efflux pump subunit AcrB (Escherichia coli (strain K12)) (UniProt P31224) | EC90 | > 500 µM

Provide EC90 for all items below, preserving their order.
1. O=C1CN(c2ncc(C(F)(F)F)cc2Cl)CCN1
2. OCc1cnc(N2CCNCC2)c(Cl)c1

> 500 µM
> 250 µM

Provide EC90 for all items below, preserving their order.
1. Cc1noc(-c2cnc(N3CCNCC3)c(Cl)c2)n1.Cl
2. FC(F)(F)c1ccc(N2CCNCC2)nc1
3. Cc1nc(-c2cnc(N3CCNCC3)c(Cl)c2)co1
4. NCCNc1ncc(C(F)(F)F)cc1Cl
5. CS(=O)(=O)Nc1cnc(N2CCNCC2)c(Cl)c1

1: > 125 µM; 2: > 500 µM; 3: > 250 µM; 4: > 500 µM; 5: > 250 µM

For this compound ( `C[C@@H]1CN(c2ncc(C(F)(F)F)cc2Cl)C[C@H](C)N1` ), measured EC90 is > 500 µM
